The entries below come with measured % Encapsulation (Ribogreen) values attached.
Assay: Encapsulation of mRNA nanoparticles with lipid amines using Ribogreen assay
Type: physicochemical
Details: CFTR mRNA nanoparticle with lipid amine
Where a name gives a salt, the structure may show the parent alone.
# number only, unit % dropped from output

Look over these answered cases.
>>> val("CC(C)CCC[C@@H](C)[C@H]1CC[C@H]2[C@@H]3CC=C4C[C@@H](OC(=O)N(CCCCN(C)CCCN(C)C)CCCN(C)C)CC[C@]4(C)[C@H]3CC[C@]12C")
99.2
>>> val("CC(C)CCC[C@@H](C)[C@H]1CC[C@H]2[C@@H]3CC=C4C[C@@H](OC(=O)N(CCCCOCCCN(C)C)CCCN(C)C)CC[C@]4(C)[C@H]3CC[C@]12C")
99.2
>>> val("CC(C)CCC[C@@H](C)[C@H]1CC[C@H]2[C@@H]3CC=C4C[C@@H](SSCCC(=O)N(CCCCCCCC(C)(C)N)CCC(C)(C)N)CC[C@]4(C)[C@H]3CC[C@]12C.Cl.Cl")
99.4
>>> val("CC[C@H](CC[C@@H](C)[C@H]1CC[C@H]2[C@@H]3CC=C4C[C@@H](OC(=O)CCC(=O)N(CCC(C)(C)N)CCC(C)(C)N)CC[C@]4(C)[C@H]3CC[C@]12C)C(C)C [SA170, dihydrochloride]")
99.2
>>> val("CC(C)CCC[C@@H](C)[C@H]1CC[C@H]2[C@@H]3CC=C4C[C@@H](OC(=O)N(CCCN)CCCCCCN)CC[C@]4(C)[C@H]3CC[C@]12C [SA83, dihydrochloride]")
99.8
>>> val("CC(C)CCC[C@@H](C)[C@H]1CC[C@H]2[C@@H]3CC=C4C[C@@H](OC(=O)N(CCCCNC(C)CC(C)N)C(C)CC(C)N)CC[C@]4(C)[C@H]3CC[C@]12C.Cl.Cl.Cl (stereo partly drawn)")
99.4
>>> val("CC(C)CCC[C@@H](C)[C@H]1CC[C@H]2[C@@H]3CC=C4C[C@@H](OC(=O)CCCCC(=O)N(CCCN)CCCCNCCCN)CC[C@]4(C)[C@H]3CC[C@]12C [SA89, trihydrochloride]")
98.6
>>> val("CC[C@H](CC[C@@H](C)[C@H]1CC[C@H]2[C@@H]3CC=C4C[C@@H](OC(=O)CCCC(=O)N(CCCCCCCC(C)(C)N)CCC(C)(C)N)CC[C@]4(C)[C@H]3CC[C@]12C)C(C)C [SA155, dihydrochloride]")
99.4

Kindly consider the entry below.
Exercise: Item under review: CCC(N)(CC)CCNCCCCN(CCC(N)(CC)CC)C(=O)CCCC(=O)O[C@H]1CC[C@@]2(C)C(=CC[C@H]3[C@@H]4CC[C@H]([C@H](C)CCCC(C)C)[C@@]4(C)CC[C@@H]32)C1 [SA185, trihydrochloride] . Reported % Encapsulation (Ribogreen)?
Solution: 98.6

Data origin, for the record: patent US20260109732A1
